# study.system: human TLR7 (Homo sapiens)
# Sequence (Q9NYK1 27-1049): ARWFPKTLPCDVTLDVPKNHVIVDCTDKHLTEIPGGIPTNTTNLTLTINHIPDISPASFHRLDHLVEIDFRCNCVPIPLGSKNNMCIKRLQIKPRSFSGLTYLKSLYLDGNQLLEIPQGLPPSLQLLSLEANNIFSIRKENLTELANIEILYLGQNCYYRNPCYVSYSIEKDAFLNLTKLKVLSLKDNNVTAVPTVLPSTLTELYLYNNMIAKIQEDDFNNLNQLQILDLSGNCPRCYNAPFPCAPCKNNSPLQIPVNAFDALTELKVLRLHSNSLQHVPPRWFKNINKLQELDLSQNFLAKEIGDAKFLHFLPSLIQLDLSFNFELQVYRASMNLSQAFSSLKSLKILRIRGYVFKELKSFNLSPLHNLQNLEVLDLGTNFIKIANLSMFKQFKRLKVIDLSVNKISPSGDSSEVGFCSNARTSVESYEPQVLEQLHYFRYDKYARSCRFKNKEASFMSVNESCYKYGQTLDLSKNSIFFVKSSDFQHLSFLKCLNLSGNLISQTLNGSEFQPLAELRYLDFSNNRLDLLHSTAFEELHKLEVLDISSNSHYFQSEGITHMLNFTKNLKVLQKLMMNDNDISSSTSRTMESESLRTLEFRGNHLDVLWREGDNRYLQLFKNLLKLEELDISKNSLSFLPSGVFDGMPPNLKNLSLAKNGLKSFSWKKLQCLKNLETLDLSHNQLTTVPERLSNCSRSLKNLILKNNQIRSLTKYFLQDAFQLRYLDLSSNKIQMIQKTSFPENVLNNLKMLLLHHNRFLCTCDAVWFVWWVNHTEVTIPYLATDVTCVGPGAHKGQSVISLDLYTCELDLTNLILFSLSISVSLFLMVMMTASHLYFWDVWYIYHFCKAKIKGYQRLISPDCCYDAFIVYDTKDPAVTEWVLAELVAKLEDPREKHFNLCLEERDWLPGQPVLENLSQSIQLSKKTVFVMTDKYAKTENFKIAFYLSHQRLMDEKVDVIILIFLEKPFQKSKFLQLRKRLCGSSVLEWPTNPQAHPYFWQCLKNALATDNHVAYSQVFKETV
# assay.summary: HEK293-Blue-hTLR-7 cells assay (SEAP reporter, R848 stimulation)
# assay.conditions: HEK293-Blue-hTLR7 cells, R848 ligand, 20 hrs incubation
Please map values of IC50 to classes as shown: low = under 40 nM, mid = from 40 nM up to 90 nM, high = 90 nM and over

Before answering, review these 5 worked examples.
compound: N#Cc1ccc(N2C[C@H](CN3CCC(N)C(F)(F)C3)[C@@H](C(F)(F)F)C2)c2nccnc12 (some centres unmarked) [Example 64]
study.system: human TLR7 (Homo sapiens)
group.label: low
//
compound: N#Cc1ccc(N2CC(CN3CC4(CC(N)C4)C3)C3(CC3)C2)c2nccnc12 (centres unmarked) [Example 42]
study.system: human TLR7 (Homo sapiens)
group.label: high
//
compound: FC(F)(F)c1ccc(N2C[C@@H](CN3CCC4(CCNC4)C3)[C@H](C(F)(F)F)C2)c2nccnc12 (relative stereo) [Example 19]
study.system: human TLR7 (Homo sapiens)
group.label: high
//
compound: CN1CCC2(CCN(C[C@H]3CN(c4ccc(C#N)c5nccnc45)C[C@@H]3C(F)(F)F)C2)C1 (some centres unmarked) [Example 84]
study.system: human TLR7 (Homo sapiens)
group.label: mid
//
compound: N#Cc1ccc(N2C[C@H](CN3CCC4(CCNC4)C3)[C@@H](C(F)(F)F)C2)c2nccnc12 (some centres unmarked) [Example 5]
study.system: human TLR7 (Homo sapiens)
group.label: low

## Task Field: class (IC50) — entry: N#Cc1ccc(N2C[C@H](CN3CCC(N)CC3)[C@@H](C(F)(F)F)C2)c2nccnc12 [Example 26]
## Result mid

## Task Field: class (IC50) — entry: N#Cc1ccc(N2CC(CN3CCC4(CCCNC4)CC3)C3(CC3)C2)c2nccnc12 (centres unmarked) [Example 13]
## Result high

## Task Field: class (IC50) — entry: N#Cc1ccc(N2CC(CN3CCC4NCC4C3)C3(CC3)C2)c2nccnc12 (centres unmarked) [Example 66]
## Result mid

## Task Field: class (IC50) — entry: CC1(CN)CCCN(C[C@H]2CN(c3ccc(C#N)c4nccnc34)C[C@@H]2C(F)(F)F)C1 (some centres unmarked) [Example 75]
## Result low

## Task Field: class (IC50) — entry: CC1(N)CCN(C[C@H]2CN(c3ccc(C#N)c4nccnc34)C[C@@H]2C(F)(F)F)CC1 [Example 12]
## Result low

---

# study.system: human TLR8 (Homo sapiens)
# assay.summary: HEK293-Blue-hTLR-8 cells assay (SEAP reporter, R848 stimulation)
# assay.conditions: HEK293-Blue-hTLR8 cells, R848 ligand, 20 hrs incubation
# Experimental: The following tests were carried out in order to determine the activity of the compounds of formula (I) in HEK293-Blue-hTLR-7/8/9 cells assay. HEK293-Blue-hTLR-8 Cells Assay: A stable HEK293-Blue-hTLR-8 cell line was purchased from InvivoGen (Cat. #: hkb-htlr8, San Diego, Calif., USA). These cells were originally designed for studying the stimulation of human TLR8 by monitoring the activation of NF-κB. […]
Here, each record is paired with measured IC50 data.
The response must be a number in µM with no trailing unit.

In plain terms, N#Cc1ccc(N2C[C@H](CN3CCC4(CCNCC4)C3)[C@@H](C(F)(F)F)C2)c2nccnc12 [Example 46] has a documented IC50 of 0.067

---

# study.system: human TLR8 (Homo sapiens)
# Sequence (Q9NR97 27-1041): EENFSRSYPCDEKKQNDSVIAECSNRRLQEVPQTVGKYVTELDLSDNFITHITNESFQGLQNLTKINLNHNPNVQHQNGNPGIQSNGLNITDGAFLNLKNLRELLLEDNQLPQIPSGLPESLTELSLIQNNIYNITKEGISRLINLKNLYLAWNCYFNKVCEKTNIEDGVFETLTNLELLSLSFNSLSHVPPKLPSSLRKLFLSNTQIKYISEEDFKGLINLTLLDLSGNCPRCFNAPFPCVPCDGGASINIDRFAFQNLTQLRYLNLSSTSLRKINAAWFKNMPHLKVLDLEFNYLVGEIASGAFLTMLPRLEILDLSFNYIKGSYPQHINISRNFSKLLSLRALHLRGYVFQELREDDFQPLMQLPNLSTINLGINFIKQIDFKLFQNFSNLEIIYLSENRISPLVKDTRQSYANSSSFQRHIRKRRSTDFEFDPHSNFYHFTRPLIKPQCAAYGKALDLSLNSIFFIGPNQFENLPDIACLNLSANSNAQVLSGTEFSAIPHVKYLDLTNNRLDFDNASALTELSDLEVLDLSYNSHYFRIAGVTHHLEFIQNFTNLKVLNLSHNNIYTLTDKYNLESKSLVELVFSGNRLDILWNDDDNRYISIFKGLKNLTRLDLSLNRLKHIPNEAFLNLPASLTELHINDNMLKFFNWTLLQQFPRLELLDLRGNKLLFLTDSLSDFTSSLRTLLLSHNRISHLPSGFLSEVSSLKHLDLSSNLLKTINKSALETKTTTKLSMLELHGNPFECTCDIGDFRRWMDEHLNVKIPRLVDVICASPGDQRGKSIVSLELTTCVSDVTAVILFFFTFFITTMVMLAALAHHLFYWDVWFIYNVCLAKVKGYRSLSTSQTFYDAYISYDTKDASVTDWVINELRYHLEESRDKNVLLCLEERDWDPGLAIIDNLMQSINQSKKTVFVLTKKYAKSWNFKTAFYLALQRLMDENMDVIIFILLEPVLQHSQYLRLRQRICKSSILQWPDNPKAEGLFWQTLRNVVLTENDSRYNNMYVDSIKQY
# assay.summary: HEK293-Blue-hTLR-8 cells assay (SEAP reporter, R848 stimulation)
# assay.conditions: HEK293-Blue-hTLR8 cells, R848 ligand, 20 hrs incubation
endpoint.name: IC50 (nM)
The response must be a number in nM with no trailing unit.

molecule: C[C@@H]1CN(c2ccc(C(F)(F)F)c3nccnc23)C[C@H]1CN1CCC(N2CCCCC2)CC1 (relative stereo)
study.system: human TLR8 (Homo sapiens)
IC50 [nM]: 245
--
molecule: N#Cc1ccc(N2C[C@H](CN3CCC(N)CC3)[C@@H](C(F)(F)F)C2)c2nccnc12 [Example 51]
study.system: human TLR8 (Homo sapiens)
IC50 [nM]: 57

For the next question, use this molecule.
The measured IC50 that N#Cc1ccc(N2C[C@H](CN3CC4(CC(N)C4)C3)[C@@H](C(F)(F)F)C2)c2cccnc12 showed for human TLR8 (Homo sapiens) is 146

---

Here, each record is paired with measured IC50 data.
# study.system: human TLR9 (Homo sapiens)
# Sequence (Q9NR96 26-1032): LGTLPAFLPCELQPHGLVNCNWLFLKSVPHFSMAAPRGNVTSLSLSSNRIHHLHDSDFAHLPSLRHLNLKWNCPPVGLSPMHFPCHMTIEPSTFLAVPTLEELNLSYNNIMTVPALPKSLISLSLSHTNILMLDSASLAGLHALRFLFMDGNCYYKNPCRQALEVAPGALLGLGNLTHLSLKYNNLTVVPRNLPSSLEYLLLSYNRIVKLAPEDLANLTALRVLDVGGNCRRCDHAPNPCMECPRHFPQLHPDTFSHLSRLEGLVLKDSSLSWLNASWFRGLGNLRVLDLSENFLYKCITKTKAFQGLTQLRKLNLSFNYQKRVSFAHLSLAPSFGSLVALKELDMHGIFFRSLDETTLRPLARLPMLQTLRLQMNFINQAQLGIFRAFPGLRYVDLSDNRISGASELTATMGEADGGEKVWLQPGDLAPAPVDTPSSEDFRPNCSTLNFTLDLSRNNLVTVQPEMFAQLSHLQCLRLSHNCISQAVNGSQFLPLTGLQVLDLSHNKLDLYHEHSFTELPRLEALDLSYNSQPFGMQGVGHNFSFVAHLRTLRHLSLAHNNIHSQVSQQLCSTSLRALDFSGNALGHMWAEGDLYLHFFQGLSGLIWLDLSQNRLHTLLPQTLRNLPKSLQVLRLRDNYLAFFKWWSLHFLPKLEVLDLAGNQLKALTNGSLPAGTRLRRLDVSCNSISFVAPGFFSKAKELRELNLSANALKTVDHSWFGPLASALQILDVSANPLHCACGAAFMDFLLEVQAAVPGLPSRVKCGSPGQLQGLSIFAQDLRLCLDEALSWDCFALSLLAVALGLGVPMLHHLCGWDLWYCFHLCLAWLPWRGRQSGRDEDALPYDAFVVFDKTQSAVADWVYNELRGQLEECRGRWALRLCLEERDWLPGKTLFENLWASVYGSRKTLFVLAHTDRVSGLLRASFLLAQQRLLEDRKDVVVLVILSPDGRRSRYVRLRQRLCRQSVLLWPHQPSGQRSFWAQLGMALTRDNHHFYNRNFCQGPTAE
# assay.summary: HEK293-Blue-hTLR-9 cells assay (SEAP reporter, ODN2006 stimulation)
# Type: cell-based
# assay.conditions: HEK293-Blue-hTLR9 cells, ODN2006 ligand, 20 hrs incubation
The response must be a number in nM with no trailing unit.

The cases that follow already have their IC50 on record.
molecule: N#Cc1ccc(N2C[C@H](CN3CC4(CCNCC4)C3)[C@@H](C(F)(F)F)C2)c2nccnc12
unit.abbreviation: nM
IC50: 97
--
molecule: N#Cc1ccc(N2CC(CN3CCC4(CC3)CNCCO4)C3(CC3)C2)c2nccnc12 (stereo not drawn)
unit.abbreviation: nM
IC50: 87
--
molecule: N#Cc1ccc(N2C[C@H](CN3CC4(CC(N)C4)C3)[C@@H](C(F)(F)F)C2)c2cccnc12
unit.abbreviation: nM
IC50: 219

For the next question, use this molecule.
In plain terms, N#Cc1ccc(N2C[C@H](CN3CCC(N)CC3)[C@@H](C(F)(F)F)C2)c2nccnc12 [Example 51] has a documented IC50 of 359

---

# study.system: human TLR7 (Homo sapiens)
# assay.summary: HEK293-Blue-hTLR-7 cells assay (SEAP reporter, R848 stimulation)
# assay.conditions: HEK293-Blue-hTLR7 cells, R848 ligand, 20 hrs incubation
endpoint.name: pIC50
Recall that pIC50 is obtained by taking minus log10 of the concentration measured in molar.

compound: N#Cc1ccc(N2C[C@H](CNC3CCNCC3)[C@@H](C(F)(F)F)C2)c2nccnc12
study.system: human TLR7 (Homo sapiens)
pIC50: 7.41

compound: N#Cc1ccc(N2CCC(CN3CCC4(CCNCC4)CC3)C2)c2nccnc12 (stereo not shown)
study.system: human TLR7 (Homo sapiens)
pIC50: 6.19

compound: N#Cc1ccc(N2C[C@H](CN3CC4(CC(N)C4)C3)[C@@H](C(F)(F)F)C2)c2nccnc12
study.system: human TLR7 (Homo sapiens)
pIC50: 7.06

compound: N#Cc1ccc(N2C[C@H](CN3CCNCC3)[C@@H](C(F)(F)F)C2)c2nccnc12
study.system: human TLR7 (Homo sapiens)
pIC50: 7.74

compound: N#Cc1ccc(N2C[C@H](CN3CC4CCC3CN4)[C@@H](C(F)(F)F)C2)c2nccnc12 (stereo partly shown)
study.system: human TLR7 (Homo sapiens)
pIC50: 7.89

The measured pIC50 that CC[C@@H]1CN(c2ccc(C#N)c3ncccc23)C[C@H]1CN1CCC2(CCNC2)C1 (relative stereo) showed for human TLR7 (Homo sapiens) is 6.43

The measured pIC50 that N#Cc1ccc(N2C[C@H](CN3CCC(N4CCCCC4)CC3)[C@@H](C(F)(F)F)C2)c2nccnc12 showed for human TLR7 (Homo sapiens) is 7.66

The measured pIC50 that N#Cc1ccc(N2C[C@H](CN3CC4(CCNCC4)C3)[C@@H](C(F)(F)F)C2)c2nccnc12 showed for human TLR7 (Homo sapiens) is 7.29
